Data provenance is the Immune Epitope Database (IEDB).

Biological target: HLA-B*46:01
Assay: IEDB peptide-MHC binding, purified MHC/competitive/fluorescence; filed as Kd, often an IC50 or EC50 that approximates it; bounds were set here for any values at or beyond the usual limits of such assays
Details: source organism: Influenza A virus (A/Gf/HK/SSP607/2003(H9N2))
pKd: −log10 of the molar value.
ASSAY METRIC: pKd

INPUT: I have this sequence here, "AMITYITRK" , and I need its recorded pKd.
OUTPUT: ≤ 4.70

###

Target: HLA-B*15:03
Assay: IEDB peptide-MHC binding, purified MHC/competitive/radioactivity; filed as Kd, often an IC50 or EC50 that approximates it; bounds were set here for any values at or beyond the usual limits of such assays
Conditions: source organism: Vaccinia virus WR
ASSAY METRIC: pKd
# pKd is unitless: minus log10 of the molar concentration; print number only

>>> measured_result("RASSGDSSF")
7.69

For the next question, use this sequence.
INPUT: Form entry - test system: HLA-B*15:03; read-out: pKd; sequence: "SQVKCCHYF"
OUTPUT: 9.04

###

Target: HLA-A*69:01
Assay: IEDB peptide-MHC binding, purified MHC/direct/fluorescence; filed as Kd, often an IC50 or EC50 that approximates it; bounds were set here for any values at or beyond the usual limits of such assays
Conditions: source organism: Shewanella violacea
ASSAY METRIC: Kd

INPUT: I have this sequence here, "ETKGKRRLL" , and I need its recorded Kd.
OUTPUT: ≥ 20 µM

###

Target: HLA-A*26:01
Assay: IEDB peptide-MHC binding, purified MHC/direct/fluorescence; filed as Kd, often an IC50 or EC50 that approximates it; bounds were set here for any values at or beyond the usual limits of such assays
Conditions: source organism: Giardia lamblia ATCC 50803
pKd: −log10 of the molar value.
ASSAY METRIC: pKd

INPUT: I have this sequence here, "LLPYPIAGC" , and I need its recorded pKd.
OUTPUT: ≤ 4.70

###

Target: HLA-A*29:02
Experiment: IEDB peptide-MHC binding, purified MHC/competitive/radioactivity; filed as Kd, often an IC50 or EC50 that approximates it; bounds were set here for any values at or beyond the usual limits of such assays
Conditions: source organism: Mammarenavirus machupoense
ASSAY METRIC: Kd

INPUT: Form entry - test system: HLA-A*29:02; read-out: Kd; sequence: "LCEEGKVCY"
OUTPUT: ≥ 45.4 µM

###

Biological target: HLA-B*58:01
Experiment: IEDB peptide-MHC binding, purified MHC/competitive/fluorescence; filed as Kd, often an IC50 or EC50 that approximates it; bounds were set here for any values at or beyond the usual limits of such assays
Conditions: source organism: Escherichia coli 536
ASSAY METRIC: pKd
# pKd is unitless: minus log10 of the molar concentration; print number only

INPUT: I have this sequence here, "IQARPCDRW" , and I need its recorded pKd.
OUTPUT: 6.72

###

Molecular target: HLA-B*44:03
Experiment: IEDB peptide-MHC binding, purified MHC/competitive/radioactivity; filed as Kd, often an IC50 or EC50 that approximates it; bounds were set here for any values at or beyond the usual limits of such assays
Conditions: source organism: Mammarenavirus whitewaterense
ASSAY METRIC: pKd
# pKd is unitless: minus log10 of the molar concentration; print number only

INPUT: I have this sequence here, "SDSVCACGL" , and I need its recorded pKd.
OUTPUT: 5.55

###

Target: HLA-B*15:01
Experiment: IEDB peptide-MHC binding, purified MHC/direct/fluorescence; filed as Kd, often an IC50 or EC50 that approximates it; bounds were set here for any values at or beyond the usual limits of such assays
Details: source organism: Haemophilus influenzae
ASSAY METRIC: Kd (µM)
Quick reminder: number only, in µM, skip the unit.

INPUT: I have this sequence here, "AILGVLATL" , and I need its recorded Kd.
OUTPUT: 18.5

###

Molecular target: HLA-B*18:01
Test: IEDB peptide-MHC binding, purified MHC/direct/fluorescence; filed as Kd, often an IC50 or EC50 that approximates it; bounds were set here for any values at or beyond the usual limits of such assays
Conditions: source organism: West Nile virus
ASSAY METRIC: pKd
# pKd is unitless: minus log10 of the molar concentration; print number only

INPUT: Form entry - test system: HLA-B*18:01; read-out: pKd; sequence: "VEGLGLQKL"
OUTPUT: 5.89

###

Kd values, listed per item
Target: HLA-A*02:06
Test: IEDB peptide-MHC binding, purified MHC/competitive/radioactivity; filed as Kd, often an IC50 or EC50 that approximates it; bounds were set here for any values at or beyond the usual limits of such assays
Conditions: source organism: Vaccinia virus WR
Quick reminder: number only, in µM, skip the unit.

>>> measured_result("NTGMGMYYPT")
11.4
>>> measured_result("GVPHSVFIA")
0.101
>>> measured_result("FTEEQQQSFM")
0.833
>>> measured_result("IVVPVIDRL")
0.0309
>>> measured_result("LIKTLSPAHL")
10.2

INPUT: I have this sequence here, "AVANCVRNL" , and I need its recorded Kd.
OUTPUT: 1.38

INPUT: I have this sequence here, "ITLILSNKL" , and I need its recorded Kd.
OUTPUT: 0.396

INPUT: I have this sequence here, "AAAKTPVIVV" , and I need its recorded Kd.
OUTPUT: 13.4

INPUT: I have this sequence here, "DINESMSQMV" , and I need its recorded Kd.
OUTPUT: 4.15

INPUT: I have this sequence here, "FLDWIKDIMT" , and I need its recorded Kd.
OUTPUT: 0.14

INPUT: I have this sequence here, "LILSNKLLYA" , and I need its recorded Kd.
OUTPUT: 0.0361

INPUT: I have this sequence here, "RLQMAGVEV" , and I need its recorded Kd.
OUTPUT: 4.11

INPUT: I have this sequence here, "YVSVMNFIPI" , and I need its recorded Kd.
OUTPUT: 0.000109

INPUT: I have this sequence here, "PLSPDTCLLA" , and I need its recorded Kd.
OUTPUT: 19.9

INPUT: I have this sequence here, "DISDVKVLAA" , and I need its recorded Kd.
OUTPUT: 4.61

###

Target: HLA-A*31:01
Assay: IEDB peptide-MHC binding, purified MHC/competitive/radioactivity; filed as Kd, often an IC50 or EC50 that approximates it; bounds were set here for any values at or beyond the usual limits of such assays
Settings: source organism: Vaccinia virus WR
Kd values, listed per item
Quick reminder: number only, in nM, skip the unit.

// solved cases for Kd follow
>>> measured_result("AFDISVNASK")
1660
>>> measured_result("VVKLTAVCMK")
208
>>> measured_result("NFGTIILNK")
1270
>>> measured_result("TILLSDKGK")
7390
>>> measured_result("FFRKLVLTNK")
200
>>> measured_result("TLSPAHLINK")
168
>>> measured_result("KSTVKLVQR")
4.44

INPUT: I have this sequence here, "LLNSMMNRDK" , and I need its recorded Kd.
OUTPUT: 690

###

Molecular target: HLA-A*03:01
Test: IEDB peptide-MHC binding, purified MHC/direct/fluorescence; filed as Kd, often an IC50 or EC50 that approximates it; bounds were set here for any values at or beyond the usual limits of such assays
Details: source organism: Rickettsia massiliae
ASSAY METRIC: pKd
# pKd is unitless: minus log10 of the molar concentration; print number only

INPUT: I have this sequence here, "MGFGHRIYK" , and I need its recorded pKd.
OUTPUT: 8.43

###

Target: HLA-A*24:02
Experiment: IEDB peptide-MHC binding, purified MHC/competitive/fluorescence; bounds were set here for any values at or beyond the usual limits of such assays
Settings: source organism: Zaire ebolavirus
Note to self: IC50 under 20 µM means condition met, ties and anything higher get condition not met.

Solved entries:
>>> qualitative_label("EVNSFKAAL")
"condition not met"
>>> qualitative_label("IYRGTTFAE")
"condition met"
>>> qualitative_label("SFASLFLPK")
"condition not met"
>>> qualitative_label("HKEGAFFLY")
"condition not met"
>>> qualitative_label("TIAGVAGLI")
"condition met"
>>> qualitative_label("EAIVNAQPK")
"condition not met"

Note: attention shifts to another entry.
INPUT: Does "ESRFTPQFL" have IC50 strictly under 20 µM?
OUTPUT: condition not met

###

Target: HLA-A*02:11
Assay: IEDB peptide-MHC binding, purified MHC/direct/fluorescence; filed as Kd, often an IC50 or EC50 that approximates it; bounds were set here for any values at or beyond the usual limits of such assays
Settings: source organism: Dengue virus 2 Thailand/16681/84
ASSAY METRIC: Kd

INPUT: I have this sequence here, "SMVNGVVRL" , and I need its recorded Kd.
OUTPUT: ≤ 1 nM

###

Target: HLA-C*12:03
Assay: IEDB peptide-MHC binding, purified MHC/direct/fluorescence; filed as Kd, often an IC50 or EC50 that approximates it; bounds were set here for any values at or beyond the usual limits of such assays
Conditions: source organism: Vaccinia virus WR
ASSAY METRIC: Kd

INPUT: I have this sequence here, "FVFEATKLY" , and I need its recorded Kd.
OUTPUT: ≤ 1 nM
